B1: TPR 5TU (parent)
chain: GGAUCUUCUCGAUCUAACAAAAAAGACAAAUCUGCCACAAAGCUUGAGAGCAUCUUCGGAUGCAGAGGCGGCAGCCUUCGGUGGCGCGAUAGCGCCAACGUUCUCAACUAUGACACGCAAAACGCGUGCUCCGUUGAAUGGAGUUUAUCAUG

Variants of: B1
testDescription: polymerase ribozyme fitness, log enrichment relative to wild type (log ratio); higher = more active; in vitro selection for triplet polymerase activity
This sample holds only a part of the variants without activity.
reportedEndpoint: polymerase ribozyme fitness (log ratio)

variantdescriptor="A24G A29C A37G G46U C57U C76U A122U A138G U144G U151C" comparisonsymbol=≤ reading=-4.2
variantdescriptor="G42A G92A C96U A98G U151G" comparisonsymbol=≤ reading=-4.2
variantdescriptor="A12U A49C U53A C85U C118G U151G" comparisonsymbol=≤ reading=-4.2
variantdescriptor="C5U A41U G68A G94A C99G U102G A115G C125G" comparisonsymbol=≤ reading=-4.2
variantdescriptor="A49C G141A" comparisonsymbol== reading=-3.79
variantdescriptor="U56A U82G" comparisonsymbol== reading=0.243
variantdescriptor="G67A C114U U134G A150C" comparisonsymbol=≤ reading=-4.2
variantdescriptor="C63A G92C" comparisonsymbol== reading=-1.03
variantdescriptor="C36A U55A A64U C96A C118G" comparisonsymbol=≤ reading=-4.2
variantdescriptor="C18G C32U C43U A89C" comparisonsymbol=≤ reading=-4.2
variantdescriptor="G81C C93U U130G C131U A150U" comparisonsymbol=≤ reading=-4.2
variantdescriptor="U9G U77C C85A C108U A120C G141C" comparisonsymbol=≤ reading=-4.2
variantdescriptor="A47U U56A C87G A115C G141A" comparisonsymbol== reading=-3.84
variantdescriptor="U15A G50U C95U C99G C105U A115G A150C" comparisonsymbol=≤ reading=-4.2
variantdescriptor="C95U C96G U135G U144G A147C" comparisonsymbol== reading=-4.2
variantdescriptor="C99U U102A" comparisonsymbol== reading=-1.33
variantdescriptor="G86U C93A G94A" comparisonsymbol== reading=-0.505
variantdescriptor="C95G C96U" comparisonsymbol== reading=-2.05
variantdescriptor="A20G C54U A60U C85A" comparisonsymbol== reading=-3.42
variantdescriptor="A17G A24U A26U G58A" comparisonsymbol== reading=-4.02
variantdescriptor="A17G A19U C93U U102C G136A U148A" comparisonsymbol=≤ reading=-4.2
variantdescriptor="A89C C93G C96U U148G" comparisonsymbol=≤ reading=-4.2
variantdescriptor=G112U comparisonsymbol== reading=-2.77
variantdescriptor="A29G A30C G59C U90G C95G G133U" comparisonsymbol=≤ reading=-4.2
variantdescriptor="C14U C18A A20C C93A G136A A142C" comparisonsymbol== reading=-2.57
variantdescriptor="A12G A20U A23C G141U" comparisonsymbol=≤ reading=-4.2
variantdescriptor="A20U A41U G48A A49G C96G A106G A107G U135G" comparisonsymbol=≤ reading=-4.2
variantdescriptor="A20U A21C U102A C125G" comparisonsymbol== reading=-3.5
variantdescriptor="U77C G92C" comparisonsymbol== reading=-3.48
variantdescriptor="C14G A24U A28U C43U A73G U82C C103G G136A U146C" comparisonsymbol=≤ reading=-4.2
variantdescriptor="U7A A22C A24U C54G G83A" comparisonsymbol=≤ reading=-4.2
variantdescriptor="U55G A89G G124C U146C" comparisonsymbol== reading=-1.44
variantdescriptor="C36U G71A G94A" comparisonsymbol=≤ reading=-4.2
variantdescriptor="A49C A52G C85U U101G U127G U144G" comparisonsymbol=≤ reading=-4.2
variantdescriptor="C85G U135A" comparisonsymbol== reading=-3.38
variantdescriptor="C5G U53G C57A G80C A91U U144C" comparisonsymbol=≤ reading=-4.2
variantdescriptor="A23G G50C G84U C85G A150C" comparisonsymbol== reading=-3.98
variantdescriptor="C43G G50U U61C G86A C95U C125U U146G" comparisonsymbol=≤ reading=-4.2
variantdescriptor="U77C C93U G100A A119U A150C" comparisonsymbol=≤ reading=-4.2
